Recorded measurements of LDLR Depletion (% inhibition at 75 nM), one per entry
- test.target: human PCSK9 (proprotein convertase subtilisin kexin type 9) (human, UniProt Q8NBP7 31-692)
- Sequence (Q8NBP7 31-692 limits assumed): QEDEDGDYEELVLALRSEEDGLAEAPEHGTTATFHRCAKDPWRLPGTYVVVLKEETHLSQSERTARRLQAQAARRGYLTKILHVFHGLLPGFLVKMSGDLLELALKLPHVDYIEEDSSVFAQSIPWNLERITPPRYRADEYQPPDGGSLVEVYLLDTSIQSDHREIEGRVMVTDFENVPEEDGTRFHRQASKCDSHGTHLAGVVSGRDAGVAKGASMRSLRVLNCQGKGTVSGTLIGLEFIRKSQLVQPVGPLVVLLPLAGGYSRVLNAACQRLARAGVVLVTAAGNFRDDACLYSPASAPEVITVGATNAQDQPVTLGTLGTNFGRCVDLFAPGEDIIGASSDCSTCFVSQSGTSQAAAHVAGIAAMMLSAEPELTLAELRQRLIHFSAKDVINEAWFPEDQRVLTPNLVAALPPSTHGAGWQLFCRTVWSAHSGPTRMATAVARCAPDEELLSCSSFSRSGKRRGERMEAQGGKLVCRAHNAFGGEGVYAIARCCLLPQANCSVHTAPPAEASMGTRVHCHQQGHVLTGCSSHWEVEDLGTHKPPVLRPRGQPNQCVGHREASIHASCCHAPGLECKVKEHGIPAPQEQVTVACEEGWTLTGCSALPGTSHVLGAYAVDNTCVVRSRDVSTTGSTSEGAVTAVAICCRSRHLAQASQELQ
- assay.summary: cell-based or functional assay
Your answer is read as %, so omit the unit and give the number.

Query: Fill blank: measured LDLR Depletion (% inhibition at 75 nM) of the binder 2381H03 (designed binder) MGVSDVPRDLEVVAATPTSLLISWEPFSRLPGGGEYYRITYGETGGNSPLQQFTVPGSKGTATISGLKPGVDYTITVYAVEYPYAHSGYFHRPISINYRTEIDKPSQHHHHHH is ____.
Result: 89.8

Query: LDLR Depletion (% inhibition at 75 nM) lookup needed for 2381B08 (designed binder) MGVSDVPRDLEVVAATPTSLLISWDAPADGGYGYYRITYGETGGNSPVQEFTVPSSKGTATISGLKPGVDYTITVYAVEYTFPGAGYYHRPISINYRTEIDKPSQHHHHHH , thanks.
Result: 125

Query: What measured LDLR Depletion (% inhibition at 75 nM) goes with 2382H10 (designed binder) MGVSDVPRDLEVVAATPTSLLISWDAPAGGYGYYRITYGETGGNSPVQEFTVPVSKGTATISGLKPGVDYTITVYAVEFDFPGSGYYHRPISINYRTEIDKPSQHHHHHH ?
Result: 119

Query: Which LDLR Depletion (% inhibition at 75 nM) is reported for this binder? 2451F03 (designed binder) MGVSDVPRDLEVVAATPTSLLISWDPPAEGYGYYRITYGETGGNSPVQEFTVPVSKGTATISGLKPGVDYTITVYAVEFNFPGSGYYHRPISINYRTEIDKPSQHHHHHH
Result: 113

Query: Which LDLR Depletion (% inhibition at 75 nM) is listed for 2382B10 (designed binder) MGVSDVPRDLEVVAATPTSLLISWDAPADAYGYYRITYGETGGNSPVQEFTVPSSKGTATISGLKPGVDYTITVYAVEYDFPGSGYYHRPISINYRTEIDKPSQHHHHHH ?
Result: 100

Query: Which LDLR Depletion (% inhibition at 75 nM) is reported for this binder? 2451H01 (designed binder) MGVSDVPRDLEVVAATPTSLLISWDAPAAGYGYYRITYGETGGNSPVQEFTVPVSKGTATISGLKPGVDYTITVYAVEYDFPGSGYYHRPISINYRTEIDKPSQHHHHHH
Result: 95.8

Query: Any idea what its LDLR Depletion (% inhibition at 75 nM) is? The binder is 2382E09 (designed binder) MGVSDVPRDLEVVAATPTSLLISWDAPAEAYGYYRITYGETGGNSPVQEFTVPVSKGTATISGLKPGVDYTITVYAVEYDFPGSGYYHRPISINYRTEIDKPSQHHHHHH
Result: 97.2

Query: Which LDLR Depletion (% inhibition at 75 nM) value belongs to 2971A09 (designed binder) MGVSDVPRDLEVVAATPTSLLISWDAPADDYGYYRITYGETGGNSPVQEFTVPIGKGTATISGLKPGVDYTITVYAVEFPWPHAGYYHRPISINYRTEIDKPSQHHHHHH ?
Result: 132
